Sourced from patent US20060140858A1

# Experimental protocol: Pretargeting: 125-I-hMN-14 × 734 bsAb, 24 h later 99m-Tc-IMP-192, biodistribution
# Format: in vivo, Nude mice
# Test parameters: female, NCRNU nude, mouse, total radioactivity; Liver, 1 h post peptide
Where a SMILES comes first, the peptide text is derived from it. Side-chain parts run from the residue outwards. The star is where a group is joined. DTPA = O=C(O)CN(CCN(CC(=O)O)CC(=O)O)CCN(CC(=O)O)CC(=O)*; X1 = NC(=S)NN=CC(=O)*
Assay metric: tissue uptake at 1 h (%ID/g)
Form entry: value (%ID/g) — number only.

Task item: // returns reported tissue uptake at 1 h for input CC(=O)N[C@@H](CCCCNC(=O)CN(CCN(CCN(CC(=O)O)CC(=O)O)CC(=O)O)CC(=O)O)C(=O)N[C@@H](Cc1ccc(O)cc1)C(=O)N[C@@H](CCCCNC(=O)CN(CCN(CCN(CC(=O)O)CC(=O)O)CC(=O)O)CC(=O)O)C(=O)N[C@@H](CCCCNC(=O)[C@H](CS)NC(=O)C=NNC(N)=S)C(N)=O [IMP 192] (Ac-K(DTPA)YK(DTPA)K([Cys-X1])-NH2)
Reply: 0.9

###

# Experimental protocol: Clearance of 99m-Tc-IMP-192 in BALB/c mice
# Assay type: in vivo
# Test parameters: BALB/c, mouse, small intestine, total radioactivity; Small int, 1 h
Where a SMILES comes first, the peptide text is derived from it. Side-chain parts run from the residue outwards. The star is where a group is joined. DTPA = O=C(O)CN(CCN(CC(=O)O)CC(=O)O)CCN(CC(=O)O)CC(=O)*; X1 = NC(=S)NN=CC(=O)*
Assay metric: tissue uptake at 1 h (%ID/g)
Respond numerically; units are %ID/g and should not be typed.

Task item: For the compound CC(=O)N[C@@H](CCCCNC(=O)CN(CCN(CCN(CC(=O)O)CC(=O)O)CC(=O)O)CC(=O)O)C(=O)N[C@@H](Cc1ccc(O)cc1)C(=O)N[C@@H](CCCCNC(=O)CN(CCN(CCN(CC(=O)O)CC(=O)O)CC(=O)O)CC(=O)O)C(=O)N[C@@H](CCCCNC(=O)[C@H](CS)NC(=O)C=NNC(N)=S)C(N)=O [IMP 192] (Ac-K(DTPA)YK(DTPA)K([Cys-X1])-NH2) , what tissue uptake at 1 h is on record?
Reply: 1.37

###

# Experimental protocol: Clearance of 99m-Tc-IMP-192 in BALB/c mice
# Format: in vivo
# Test parameters: BALB/c, mouse, total radioactivity; Urine, 2 h
Where a SMILES comes first, the peptide text is derived from it. Side-chain parts run from the residue outwards. The star is where a group is joined. DTPA = O=C(O)CN(CCN(CC(=O)O)CC(=O)O)CCN(CC(=O)O)CC(=O)*; X1 = NC(=S)NN=CC(=O)*
Assay metric: excreta dose per gram or mL at 2 h (%ID/g)
Express your answer in %ID/g, writing the number without its unit.

Task item: Find the recorded excreta dose per gram or mL at 2 h belonging to CC(=O)N[C@@H](CCCCNC(=O)CN(CCN(CCN(CC(=O)O)CC(=O)O)CC(=O)O)CC(=O)O)C(=O)N[C@@H](Cc1ccc(O)cc1)C(=O)N[C@@H](CCCCNC(=O)CN(CCN(CCN(CC(=O)O)CC(=O)O)CC(=O)O)CC(=O)O)C(=O)N[C@@H](CCCCNC(=O)[C@H](CS)NC(=O)C=NNC(N)=S)C(N)=O [IMP 192] (Ac-K(DTPA)YK(DTPA)K([Cys-X1])-NH2) and report it.
Reply: 57
